- Tested on: P. aeruginosa E411-17
- test_protocol: microbe, parasite or virus in culture
- Type: cell-based, Pseudomonas aeruginosa
- stated_conditions: E411-17; read-out: MIC P. aeruginosa E411-17
Peptide text beside a SMILES is read from it.
reported_property: MIC (µM)
Answers are plain numbers, in µM.

MIC on P. aeruginosa E411-17 for CC[C@H](C)[C@H](NC(=O)[C@H](CCCCN)NC(=O)[C@@H](N)CCCNC(=N)N)C(=O)N[C@@H](Cc1c[nH]c2ccccc12)C(=O)N[C@@H](Cc1c[nH]c2ccccc12)C(=O)N[C@@H](Cc1c[nH]c2ccccc12)C(=O)N[C@@H](Cc1c[nH]c2ccccc12)C(=O)N[C@@H](CC(C)C)C(N)=O [WW295, RKIWWWWL] (H-RKIWWWWL-NH2; N-terminus and C-terminus assumed) is 32
